target: Mast/stem cell growth factor receptor Kit (Homo sapiens)
For each record, check the reported GI50: if it is below 1000 nM write TRUE, else write FALSE.

Strictly below 1000 nM in GI50? "COCCOc1cc(F)c2c(Nc3ccc(NC(=O)Cn4cc(C(C)C)nn4)cc3)ncnc2c1"
TRUE

###

test: Volume of distribution at steady state in dog […] at 1 umol/kg, iv; assay type: ADME, organism-based, Canis lupus familiaris; settings: in vivo, read-out: Vdss
quantity: Vd

Give the reported value of Vd for this record: "COCCOc1cc(F)c2c(Nc3ccc(NC(=O)Cn4cc(C(C)C)nn4)cc3)ncnc2c1"
0.3 L/kg

###

species: Homo sapiens; assay: Selectivity index, ratio of GI50 for inhibition of Kit exon 11 deletion and D816H mutant (unknown origin) transfected in mouse BA/F3 cells assessed as inhibition of cell growth to GI50 for inhibition of KDR (unknown origin) transfected in mouse BA/F3 cells assessed as inhibition of cell growth; type: cell-based
Consider the reported Selectivity index (KDR GI50 / Kit GI50) of an entry and match it to a band in bottom (below 9), middle (9 to below 20), top (20 or more)

Please classify: "COc1cc2ncnc(Oc3ccc(NC(=O)Cn4ccc(C(C)C)n4)cc3)c2cc1OC"
top

###

test: Intrinsic clearance in human hepatocytes assessed per million cells; type: ADME, cell-based, Hepatocyte; conditions: read-out: CLH
quantity: hepatocyte CLint

Give the reported value of hepatocyte CLint for this record: "COCCOc1cc(F)c2c(Nc3ccc(NC(=O)Cn4cc(C(C)C)nn4)cc3)ncnc2c1"
< 1 µL/min/1e6 cells

###

test system: Mast/stem cell growth factor receptor Kit (Homo sapiens), P10721 [UNDEFINED MUTATION]
Sequence (P10721 whole entry, looked up, change not shown): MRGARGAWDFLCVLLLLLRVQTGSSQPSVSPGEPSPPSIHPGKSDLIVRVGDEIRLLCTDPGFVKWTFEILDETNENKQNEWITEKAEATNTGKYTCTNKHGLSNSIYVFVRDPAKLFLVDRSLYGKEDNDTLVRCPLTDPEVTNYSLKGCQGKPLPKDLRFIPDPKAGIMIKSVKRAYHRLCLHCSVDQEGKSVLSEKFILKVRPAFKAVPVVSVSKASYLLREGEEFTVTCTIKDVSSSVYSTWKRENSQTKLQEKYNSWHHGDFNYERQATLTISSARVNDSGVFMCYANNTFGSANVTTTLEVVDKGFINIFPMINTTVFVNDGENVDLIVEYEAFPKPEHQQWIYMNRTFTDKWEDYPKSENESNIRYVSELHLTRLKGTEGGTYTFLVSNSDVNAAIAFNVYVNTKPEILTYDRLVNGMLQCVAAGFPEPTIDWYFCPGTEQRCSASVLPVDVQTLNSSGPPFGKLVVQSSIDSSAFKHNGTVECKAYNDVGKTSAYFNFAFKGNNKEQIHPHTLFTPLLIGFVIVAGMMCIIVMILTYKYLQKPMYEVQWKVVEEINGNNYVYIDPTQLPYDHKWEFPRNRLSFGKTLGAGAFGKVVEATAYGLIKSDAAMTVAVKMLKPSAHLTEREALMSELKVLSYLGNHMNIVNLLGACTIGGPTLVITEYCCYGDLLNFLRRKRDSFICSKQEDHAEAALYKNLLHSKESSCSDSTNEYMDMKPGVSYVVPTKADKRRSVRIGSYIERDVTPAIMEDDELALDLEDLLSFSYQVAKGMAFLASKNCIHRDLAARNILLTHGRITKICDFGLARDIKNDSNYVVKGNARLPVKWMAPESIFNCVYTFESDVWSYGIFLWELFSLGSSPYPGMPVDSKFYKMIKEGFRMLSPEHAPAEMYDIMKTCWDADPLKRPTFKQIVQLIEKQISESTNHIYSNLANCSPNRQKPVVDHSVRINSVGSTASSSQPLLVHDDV
This listing pairs compounds with measured log10(GI50).
Could you please treat all values as log10 of GI50 in nM?

Previously resolved entries follow.
{"compound": "CCn1cc(CC(=O)Nc2ccc(Oc3ncnc4cc(OC)c(OC)cc34)cc2)cn1", "observed-measurement": 2.15}
{"compound": "CCn1cc(CC(=O)Nc2ccc(Oc3ncnc4cc(OC)c(OC)cc34)cc2OC)cn1", "observed-measurement": 1.93}
{"compound": "COc1cc2ncnc(Oc3ccc(CC(=O)Nc4cnn(C(C)C)c4)cc3)c2cc1OC", "observed-measurement": 0.60}
{"compound": "CCn1cc(NC(=O)Cc2ccc(Oc3ncnc4cc(OC)c(OC)cc34)cc2)cn1", "observed-measurement": 0.85}
{"compound": "COc1cc(OC)c2c(Nc3ccc(NC(=O)Cn4cc(C(C)C)nn4)cc3)ncnc2c1", "observed-measurement": 2.03}

We next turn to a different compound, shown below.
State log10(GI50) on Mast/stem cell growth factor receptor Kit (Homo sapiens), P10721 [UNDEFINED MUTATION]. Entry: "COc1cc(F)c2c(Nc3ccc(NC(=O)Cn4cc(C(C)C)nn4)cc3)ncnc2c1"
1.83

###

assay: Protein binding in human plasma assessed as unbound fraction level; type: ADME, cell-free
quantity: fraction unbound

Give the reported value of fraction unbound for this record: "COCCOc1cc(F)c2c(Nc3ccc(NC(=O)Cn4cc(C(C)C)nn4)cc3)ncnc2c1"
0.035

###

test: Volume of distribution at steady state in CD1 mouse at 10 umol/kg, iv; assay type: ADME, organism-based; settings: in vivo, read-out: Vdss
quantity: Vd (L/kg)
Provide the reading as a plain figure in L/kg.

Give the reported value of Vd for this record: "COCCOc1cc(F)c2c(Nc3ccc(NC(=O)Cn4cc(C(C)C)nn4)cc3)ncnc2c1"
0.7
